- Assay overview: LAP4-GFP expression modulators in yeast, confirmation, cell-based, cherry picks, flow cytometry, mother/daughter gates (AID 2271);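 further: ratio of sample to DMSO plate mean so 100% equals DMSO level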
- Experimental parameters: S. cerevisiae LAP4-GFP strain, 3 h, at 10 µM, stronger effect = higher value, 100 means same as DMSO control
Measured quantity: GFP response relative to DMSO (%)
Field: numeric (%). Do not append units.

Req: Which value of GFP response relative to DMSO has been reported for CCOc1ccc(N2C(=O)CC(Sc3ncccn3)C2=O)cc1 (stereo not drawn) in the records?
Resp: 97.9

Req: Field entry: "CCOc1ccccc1N1CCN(C(=O)c2ccccc2)CC1"
Resp: 101

Req: Field entry: "O=C1c2cccc3c(N4CCCCC4)ccc(c23)C(=O)N1CCO"
Resp: 99.5

Req: Field entry: COC(=O)c1ccc(N2C(=O)CC(Sc3n[nH]c(C)n3)C2=O)cc1 (stereo not drawn)
Resp: 128

Req: Field entry: "CC(=O)Nc1ccc(NC(=O)c2nc(S(=O)(=O)Cc3ccccc3)ncc2Cl)cc1"
Resp: 106
